System: AncSZ
protocol notes: phosphorylation enrichment, bacterial display (enrichment ratio); higher = better substrate or ligand; peptides without Tyr show the background;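 note: 11-residue human phosphosite peptides and single-mutation variants displayed on the E. coli surface, counted by deep sequencing, each peptide's frequency after selection divided by its frequency in the unselected input library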;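 note: frequency after pTyr selection over input frequency; kinase dosed for 20-30% of maximal phosphorylation in three min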
Entry flag: Yes if phosphorylation enrichment reaches 1; No if it does not.

Worked examples, 5 sequences total:
1) SFPSYYTSHVQ [NEFL_Y443]    No
2) TKDTFYKQPVF [GBA_Y451_M455V]    No
3) RNVFFYSFLLK [PTEN_Y178_Y174N_YF]    Yes
4) FFFDLYGGEKF [PTPN11_Y66_D61Y_YF]    No
5) SYPHEYGSQEG [RBM10_Y48_R46H]    No

Let us examine a further case.
Task item: Check if phosphorylation enrichment >= 1 (inclusive). Item: STEEQYRICQV [EFHC1_Y115_R118C]
Reply: Yes

* * *

Please go through the items and note down their phosphorylation enrichment.
measured on: FGFR1 (UniProt P11362)
Sequence (P11362 whole entry, looked up): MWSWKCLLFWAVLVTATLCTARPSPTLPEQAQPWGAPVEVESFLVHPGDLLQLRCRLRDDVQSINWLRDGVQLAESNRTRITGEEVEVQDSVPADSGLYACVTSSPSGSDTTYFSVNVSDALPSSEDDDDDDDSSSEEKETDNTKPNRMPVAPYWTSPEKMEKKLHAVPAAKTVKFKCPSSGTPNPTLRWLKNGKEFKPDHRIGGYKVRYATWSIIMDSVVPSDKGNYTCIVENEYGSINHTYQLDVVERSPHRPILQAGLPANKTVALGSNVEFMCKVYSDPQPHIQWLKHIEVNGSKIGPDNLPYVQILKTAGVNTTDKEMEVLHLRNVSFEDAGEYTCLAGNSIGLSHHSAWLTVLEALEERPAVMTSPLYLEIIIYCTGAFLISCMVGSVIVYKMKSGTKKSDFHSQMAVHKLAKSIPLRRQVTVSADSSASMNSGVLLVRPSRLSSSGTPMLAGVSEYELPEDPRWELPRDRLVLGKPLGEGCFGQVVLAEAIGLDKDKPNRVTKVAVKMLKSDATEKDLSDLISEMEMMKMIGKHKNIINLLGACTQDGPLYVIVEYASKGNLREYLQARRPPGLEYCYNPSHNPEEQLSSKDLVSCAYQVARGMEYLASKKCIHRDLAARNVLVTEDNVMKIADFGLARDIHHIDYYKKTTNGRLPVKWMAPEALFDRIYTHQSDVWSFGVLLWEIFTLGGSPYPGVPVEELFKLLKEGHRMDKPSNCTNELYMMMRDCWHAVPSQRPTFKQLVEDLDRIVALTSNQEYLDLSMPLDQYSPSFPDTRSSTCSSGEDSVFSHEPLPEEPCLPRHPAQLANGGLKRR
protocol notes: phosphorylation enrichment, bacterial display (enrichment ratio); higher = better substrate or ligand; peptides without Tyr show the background
Give bare numbers.

The cases that follow already have their phosphorylation enrichment on record.
1. PVDVAYRHGFF [PLEC_Y2967_R2969H_YF]    0.574
2. SKKVRYVVSKA [BARD1_Y156]    0.292
3. EKKKKYMLPLD [DNM2_Y563_E560K]    0.5
4. SNKELYEKYMI    0.482
5. PGAGHYEDTIL [ALK_Y1604]    0.664

For each entry beneath this line, provide reported phosphorylation enrichment.
1. EAMPDYKKQLR [SPATA18_Y229_S227P]
2. RFGKVYKGHLF [ROR2_Y488]
3. CRPPFYHRNCM [HGD_Y334_F329C_YF]
4. PNATLYKMSSI [SERPINA7_Y40]
5. EVVGRYSVHFA [MLH1_Y183_N187Y_YF]
6. KPRKPYTIKKP [BRD2_Y715]
7. AVVEPYNSILT [TUBA1A_Y185]

Reply:
1. 0.399
2. 0.661
3. 0.435
4. 0.406
5. 0.529
6. 0.864
7. 0.438

Give measured phosphorylation enrichment for every item shown.
1. VGGRIYIDDAL [PKLR_Y218_G222A]
2. LGRKLYSIAAP [ABHD12_Y345]

Reply:
[0.542, 0.543]

* * *

System: Fer (mouse)
protocol notes: phosphorylation enrichment, bacterial display (enrichment ratio); higher = better substrate or ligand; peptides without Tyr show the background
Assign classes using reported phosphorylation enrichment values and the ranges low bracket (below 0.4), middle bracket (0.4 to below 0.6), high bracket (0.6 or more), please.

1. DLKFHYDNTAG [KDR_Y1214_P1210L]    middle bracket
2. LGRKLYSIAAP [ABHD12_Y345]    high bracket

Task item: Input IKNSGYISRFL [EIF2AK3_Y585_YF] ; output its category
Reply: low bracket

Task item: Lab note: which band did ISTAGYSIPEL [EDAR_Y406] land in?
Reply: middle bracket

Task item: Given FADIAYNYRDG [PAH_Y166_H170D] , name the class its phosphorylation enrichment places it in.
Reply: low bracket

Task item: Sort into band: ALMGLYHGQVL [HADHA_Y343]
Reply: high bracket

Task item: Note: place this sequence into its band. Item: RDLHTYIMPAH [PNMT_Y256_R254H]
Reply: middle bracket

Task item: Please report the category associated with TYGVLYKARNK [CDK2_Y19_V18L] , nothing else.
Reply: middle bracket

Task item: Consider RLLREYQELMN [KRT75_Y434] . To which phosphorylation enrichment class does it belong?
Reply: middle bracket

Task item: Which phosphorylation enrichment band matches MSSLFYANALF [HOXB7_Y6_T9A_YF] ?
Reply: high bracket

Task item: Textbook exercise: identify the category of the sequence given here, NVQIVYKPVDL [MAPT_Y627_S622N] , according to its measured value.
Reply: middle bracket

Task item: Class label required: CTTIHYNFVCN [TP53_Y234_M237V_YF]
Reply: high bracket
